# target system: T1, C5a receptor expressed on the surface of human PMNs (human, UniProt P21730 1-350)
# T1 construct: whole, on cells; also called C5aRs; C5aR5
# T1 sequence (looked up): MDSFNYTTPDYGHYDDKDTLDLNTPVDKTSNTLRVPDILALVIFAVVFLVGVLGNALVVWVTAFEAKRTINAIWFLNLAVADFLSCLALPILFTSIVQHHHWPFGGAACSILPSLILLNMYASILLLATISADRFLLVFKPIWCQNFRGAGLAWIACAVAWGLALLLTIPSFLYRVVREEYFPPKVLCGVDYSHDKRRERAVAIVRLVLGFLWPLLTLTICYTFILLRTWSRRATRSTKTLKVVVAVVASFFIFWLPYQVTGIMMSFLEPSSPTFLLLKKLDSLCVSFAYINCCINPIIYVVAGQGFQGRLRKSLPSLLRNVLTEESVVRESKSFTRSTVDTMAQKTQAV
# measurement description: competition with 125I-C5a on intact human PMNs
Non-standard residues stand in square brackets, D forms with d. No end group written: not given here.
experimental readout: pD2 (-log IC50 (M))

Here is how some binders turned out for pD2 (-log IC50 (M)).
IPQSLDSWWTSLYSFKPMPL[dA]R (synthetic peptide) [IPQSLDSWWTSLYSFKPMPLaR] ... 5.43 -log IC50 (M)
YSFKPMPL[dA]RRRIPQSLDSWWTSL (synthetic peptide) [YSFKPMPLa[…]] ... 3.33 -log IC50 (M)
YSFKPMPL[dA]R (synthetic peptide; also called C5a agonist) [C5a C-terminal decapeptide agonist analog YSFKPMPLaR] ... 5.63 -log IC50 (M)
IPQSLDSWWTSLRRYSFKPMPL[dA]R (synthetic peptide; also called double-Arg-linked C5a-active construct) [IPQSLDSWWTSLRRYSFKPMPLaR] ... 6.38 -log IC50 (M)
natural C5a (ligand, UniProt P01031 678-751, looked up, C5a is a fragment of it) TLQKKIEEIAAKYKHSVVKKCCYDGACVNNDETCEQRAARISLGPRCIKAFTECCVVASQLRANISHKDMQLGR ... 9.43 -log IC50 (M)
IPQSLDSWWTSLRVRRYSFKPMPL[dA]R (synthetic peptide; also called RVRR-containing C5a-active construct) [IPQSLDSWWTSLRVRRYSFKPMPLaR] ... 6.28 -log IC50 (M)

Next up:
Task: What value of measured pD2 (-log IC50 (M)) is listed for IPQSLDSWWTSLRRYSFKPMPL[dA]RG (synthetic peptide) [IPQSLDSWWTSLRRYSFKPMPLaRG] ?
Result: 4.77 -log IC50 (M)
